Test system: Radical scavenging activity
Measurement Description: Antioxidant activity assessed as as DPPH radical scavenging activity by spectrophotometry
Assay type: functional
Kindly state IC50 for each of the entries shown.
One number for each entry, in µg/mL.

Example cases with answers are listed next.
INSERT INTO results (compound, measured_attribute, assay_value) VALUES
  ('C(=N/Nc1nc(-c2cc3ccccc3o2)cs1)/c1cn(-c2ccccc2)nc1-c1cccs1', 'IC50', 25),
  ('O=C(/C=C/c1cn(-c2ccccc2)nc1-c1cccs1)c1ccc(Cl)cc1', 'IC50', 1000),
  ('Clc1ccc(C2=NNC(c3cn(-c4ccccc4)nc3-c3cccs3)C2)cc1 (stereo not given)', 'IC50', 750),
  ('O=C1CS/C(=N\N=C/c2cn(-c3ccccc3)nc2-c2cccs2)N1', 'IC50', 500),
  ('N/C(=N/N=C\c1cn(-c2ccccc2)nc1-c1cccs1)SCC(=O)Nc1cccs1', 'IC50', 1000),
  ('NC(=S)N/N=C\c1cn(-c2ccccc2)nc1-c1cccs1', 'IC50', 500);

Record IC50 per entry; entries follow.
1. O=c1oc2ccccc2cc1-c1csc(N/N=C\c2cn(-c3ccccc3)nc2-c2cccs2)n1
2. Cc1ccc(NC(=S)N2N=C(c3ccc(Cl)cc3)CC2c2cn(-c3ccccc3)nc2-c2cccs2)cc1 (stereo not given)
3. Cc1nc(N/N=C\c2cn(-c3ccccc3)nc2-c2cccs2)sc1/N=N/c1ccc(F)cc1
4. C(=N/Nc1nc2nc3ccccc3nc2s1)/c1cn(-c2ccccc2)nc1-c1cccs1

25
500
25
500
